Listed here: items and their measured In vitro activity relative to native peptide (%) vs. GLP-1.
target: human GLP-1 receptor (human, UniProt P43220 24-463); experiment: cell-based or functional assay
Bridges are numbered along the chain shown (N, C = ends). Where no end group is shown, it is not given here. [ ]: non-standard residue; d: D form. The star is where a group is joined. Acetyl(2-(4-imidazolyl)) = O=C(Cc1c[nH]cn1)*; Aib = CC(C)(N)C(=O)O
The answer consists of two parts: a number and, after it, its unit.

Some solved cases for reference:
{"columns": ["BINDER", "RESULT"],
 "data": [
  ["H[Aib]QGTFTSDYSKYLDEKRQKEFVQWLLNTC (bridge 16-20) [triple agonist of SEQ ID NO: 51]", "14.4%"],
  ["Y[Aib]QGTFTSDYSKCLDEKRAKDFVQWLLDHHPSSGQPPPS (bridge 16-20) [triple agonist of SEQ ID NO: 70]", "15.1%"],
  ["Y[Aib]QGTFTSDYSKYLDEKRAKEFVQWLLDHHPSSGQPPPSC (bridge 16-20) [triple agonist of SEQ ID NO: 42]", "33.9%"],
  ["[Acetyl(2-(4-imidazolyl))]GQGTFTSDYSIQLDEIAVRDFVEWLKNGGPSSGAPPPSHG [triple agonist of SEQ ID NO: 14]", "28%"]
]}

Exercise: // In vitro activity relative to native peptide (%) vs. GLP-1 lookup, key: H[Aib]QGTFTSDYSKYLDEKRQKEFVQWLLDTC (bridge 16-20) [triple agonist of SEQ ID NO: 52]
Key: 44.1%

Exercise: Also, {Acetyl(2-(4-imidazolyl))}-[Aib]QGTFTSDYSKYLDEKRQKEFVQWLLDTKC (bridge 15-19) [triple agonist of SEQ ID NO: 89] please.
Key: 7.1%

Exercise: For H[Aib]QGTFTSDYSIAMDEIHQKDFVNWLLAQC (bridge 16-20) [triple agonist of SEQ ID NO: 55] then?
Key: 27.1%

src = patent US20230302148A1
